Test: Plasma pharmacokinetics after IV and PO administration
Type: in vivo, male Sprague–Dawley rats
Conditions: male, Sprague-Dawley, rat, plasma, po, 10 mg/kg, PO 10 mg/kg, individual rats R04-R06; read-out: Tmax

[
  {
    "COMPOUND": "Cc1ccc(Nc2ncc3c(n2)N(C)C(=O)N(c2cccc(N)c2)C3)cn1 [LZQ-02-023-01]",
    "Tmax": "15 min"
  }
]

###

Test: Plasma pharmacokinetics after IV and PO administration
Assay type: in vivo, male Sprague–Dawley rats
Conditions: male, Sprague-Dawley, rat, plasma, po, 10 mg/kg, PO 10 mg/kg vs IV 1 mg/kg, individual rats R04-R06; read-out: F (bioavailability)
Experimental: LZQ‐02‐023‐1 was administered to male Sprague–Dawley (SD) rats (n = 3 per group) via intravenous injection at a dose of 1 mg/kg or oral gavage at a dose of 10 mg/kg. Blood samples were collected at predetermined time points, and plasma concentrations of LZQ‐02‐023‐1 were determined using a validated LC‐MS/MS method. […] A 10 µL aliquot of the diluted supernatant was injected into an AB Sciex Triple Quad 5500 LC‐MS/MS system for quantitative analysis. […]

[
  {
    "RECORD SMILES": "Cc1ccc(Nc2ncc3c(n2)N(C)C(=O)N(c2cccc(N)c2)C3)cn1",
    "UNITS TEXT": "%",
    "bioavailability": 1.82
  }
]

###

Target: SETD1B (Homo sapiens, UniProt Q9UPS6)

[
  {
    "RECORD SMILES": "Cc1ccc(Nc2ncc3c(n2)N(C)C(=O)N(c2cccc(N)c2)C3)cn1",
    "IC50 / µM": 8.97
  }
]

###

Target: EZH1 (Homo sapiens, UniProt Q92800)
Sequence (Q92800 whole entry, species assumed): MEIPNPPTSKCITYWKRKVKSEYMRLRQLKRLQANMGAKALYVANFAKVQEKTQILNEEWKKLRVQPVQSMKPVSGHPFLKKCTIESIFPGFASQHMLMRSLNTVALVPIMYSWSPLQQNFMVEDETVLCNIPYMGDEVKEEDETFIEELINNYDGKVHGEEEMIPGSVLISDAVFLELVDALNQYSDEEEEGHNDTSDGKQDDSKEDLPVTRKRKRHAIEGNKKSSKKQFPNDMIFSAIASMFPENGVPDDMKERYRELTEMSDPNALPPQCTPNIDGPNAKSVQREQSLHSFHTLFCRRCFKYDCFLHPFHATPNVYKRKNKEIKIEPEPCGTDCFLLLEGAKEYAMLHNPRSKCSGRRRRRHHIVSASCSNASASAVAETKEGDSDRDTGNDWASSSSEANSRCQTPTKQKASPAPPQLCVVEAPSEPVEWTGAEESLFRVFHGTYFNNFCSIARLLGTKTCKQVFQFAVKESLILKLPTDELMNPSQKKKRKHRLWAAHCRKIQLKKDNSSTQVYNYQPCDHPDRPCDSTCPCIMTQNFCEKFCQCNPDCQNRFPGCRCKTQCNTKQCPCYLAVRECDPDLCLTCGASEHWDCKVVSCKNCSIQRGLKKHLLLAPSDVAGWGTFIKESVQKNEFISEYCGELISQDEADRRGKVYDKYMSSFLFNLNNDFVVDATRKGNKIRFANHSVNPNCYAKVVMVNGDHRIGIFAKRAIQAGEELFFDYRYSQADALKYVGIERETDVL
Sequence (O75530 whole entry partner, species assumed): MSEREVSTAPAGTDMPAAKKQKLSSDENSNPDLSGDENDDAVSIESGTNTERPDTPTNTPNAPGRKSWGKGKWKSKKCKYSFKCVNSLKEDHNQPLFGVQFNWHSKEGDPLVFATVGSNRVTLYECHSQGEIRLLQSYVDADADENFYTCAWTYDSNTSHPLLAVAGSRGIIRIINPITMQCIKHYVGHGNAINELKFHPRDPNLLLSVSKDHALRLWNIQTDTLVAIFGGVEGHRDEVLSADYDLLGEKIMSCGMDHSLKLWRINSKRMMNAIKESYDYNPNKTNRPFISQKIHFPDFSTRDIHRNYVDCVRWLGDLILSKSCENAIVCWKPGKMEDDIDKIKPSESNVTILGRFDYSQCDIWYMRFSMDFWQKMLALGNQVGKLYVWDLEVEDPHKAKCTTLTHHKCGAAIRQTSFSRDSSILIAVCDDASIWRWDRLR
Sequence (Q15022 whole entry partner, species assumed): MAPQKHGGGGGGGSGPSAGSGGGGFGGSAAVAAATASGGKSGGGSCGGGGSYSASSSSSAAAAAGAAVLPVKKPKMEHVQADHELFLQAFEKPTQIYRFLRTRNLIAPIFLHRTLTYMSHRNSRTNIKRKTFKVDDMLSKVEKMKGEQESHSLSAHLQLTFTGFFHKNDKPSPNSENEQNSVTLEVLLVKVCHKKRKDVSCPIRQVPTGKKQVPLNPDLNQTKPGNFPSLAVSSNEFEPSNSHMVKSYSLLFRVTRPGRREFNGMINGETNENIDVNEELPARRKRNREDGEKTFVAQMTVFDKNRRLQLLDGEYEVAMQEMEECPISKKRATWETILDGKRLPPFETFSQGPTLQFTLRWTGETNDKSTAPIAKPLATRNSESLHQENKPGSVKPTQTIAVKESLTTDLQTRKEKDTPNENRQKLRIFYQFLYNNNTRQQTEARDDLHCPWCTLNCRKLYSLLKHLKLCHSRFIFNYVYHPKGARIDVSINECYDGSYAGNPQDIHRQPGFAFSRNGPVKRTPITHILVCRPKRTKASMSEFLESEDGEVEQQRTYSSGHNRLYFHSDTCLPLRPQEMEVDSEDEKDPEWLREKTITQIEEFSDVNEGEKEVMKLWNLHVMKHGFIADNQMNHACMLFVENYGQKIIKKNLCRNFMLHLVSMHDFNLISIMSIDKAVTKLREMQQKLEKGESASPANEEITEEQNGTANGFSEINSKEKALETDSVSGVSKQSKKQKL
Sequence (Q09028 whole entry partner, species assumed): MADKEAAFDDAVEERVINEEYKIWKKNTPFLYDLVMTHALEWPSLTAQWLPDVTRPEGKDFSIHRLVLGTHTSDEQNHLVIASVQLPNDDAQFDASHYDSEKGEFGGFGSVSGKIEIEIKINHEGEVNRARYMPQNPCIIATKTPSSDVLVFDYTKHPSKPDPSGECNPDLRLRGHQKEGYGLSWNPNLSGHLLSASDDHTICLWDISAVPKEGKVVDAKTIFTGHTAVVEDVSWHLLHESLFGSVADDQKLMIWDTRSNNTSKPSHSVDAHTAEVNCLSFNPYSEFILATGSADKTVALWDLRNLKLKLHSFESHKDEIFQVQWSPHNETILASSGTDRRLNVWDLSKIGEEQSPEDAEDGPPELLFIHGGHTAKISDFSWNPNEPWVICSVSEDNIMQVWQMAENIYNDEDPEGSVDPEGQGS

[
  {
    "RECORD SMILES": "Cc1ccc(Nc2ncc3c(n2)N(C)C(=O)N(c2cccc(N)c2)C3)cn1",
    "IC50 / µM": 28.9
  }
]

###

Molecular target: G9A (Homo sapiens)
Sequence (Q96KQ7 1-1210): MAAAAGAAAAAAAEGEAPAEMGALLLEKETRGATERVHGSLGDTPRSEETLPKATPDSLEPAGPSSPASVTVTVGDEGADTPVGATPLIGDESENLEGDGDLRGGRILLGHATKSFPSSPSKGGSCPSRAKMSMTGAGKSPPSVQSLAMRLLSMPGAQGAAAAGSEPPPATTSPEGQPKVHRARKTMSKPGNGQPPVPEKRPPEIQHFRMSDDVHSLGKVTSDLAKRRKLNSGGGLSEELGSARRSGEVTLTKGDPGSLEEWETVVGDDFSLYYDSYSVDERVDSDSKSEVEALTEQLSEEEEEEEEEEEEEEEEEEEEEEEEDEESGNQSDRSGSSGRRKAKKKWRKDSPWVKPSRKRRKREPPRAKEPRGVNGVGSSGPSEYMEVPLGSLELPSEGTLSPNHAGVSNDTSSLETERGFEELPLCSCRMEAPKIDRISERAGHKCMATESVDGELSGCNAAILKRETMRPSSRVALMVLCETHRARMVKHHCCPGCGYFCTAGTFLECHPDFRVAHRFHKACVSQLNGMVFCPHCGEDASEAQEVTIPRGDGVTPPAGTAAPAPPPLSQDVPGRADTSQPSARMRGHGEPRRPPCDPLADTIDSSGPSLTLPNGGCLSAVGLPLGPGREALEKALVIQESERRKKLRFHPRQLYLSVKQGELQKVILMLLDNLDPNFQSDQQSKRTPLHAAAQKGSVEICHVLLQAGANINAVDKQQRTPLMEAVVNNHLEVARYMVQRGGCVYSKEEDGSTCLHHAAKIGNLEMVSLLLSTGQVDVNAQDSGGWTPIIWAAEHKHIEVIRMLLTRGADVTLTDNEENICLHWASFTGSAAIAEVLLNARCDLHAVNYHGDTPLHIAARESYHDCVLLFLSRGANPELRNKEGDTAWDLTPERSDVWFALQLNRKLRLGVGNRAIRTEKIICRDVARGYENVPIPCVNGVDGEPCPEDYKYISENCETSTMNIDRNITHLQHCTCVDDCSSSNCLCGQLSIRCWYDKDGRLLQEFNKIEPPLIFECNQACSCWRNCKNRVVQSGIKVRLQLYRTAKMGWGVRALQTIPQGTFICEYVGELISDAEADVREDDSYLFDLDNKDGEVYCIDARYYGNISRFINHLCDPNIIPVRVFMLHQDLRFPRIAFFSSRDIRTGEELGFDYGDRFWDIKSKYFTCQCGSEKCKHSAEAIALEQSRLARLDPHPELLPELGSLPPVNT
pIC50: −log10 of the molar value.

[
  {
    "RECORD SMILES": "Cc1ccc(Nc2ncc3c(n2)N(C)C(=O)N(c2cccc(N)c2)C3)cn1",
    "pIC50": 4.41
  }
]

###

Assay: Plasma pharmacokinetics after IV and PO administration
Format: in vivo, male Sprague–Dawley rats
Details: male, Sprague-Dawley, rat, plasma, iv, 1 mg/kg, IV 1 mg/kg, individual rats R01-R03; read-out: MRTInf_obs
Experimental: LZQ‐02‐023‐1 was administered to male Sprague–Dawley (SD) rats (n = 3 per group) via intravenous injection at a dose of 1 mg/kg or oral gavage at a dose of 10 mg/kg. Blood samples were collected at predetermined time points, and plasma concentrations of LZQ‐02‐023‐1 were determined using a validated LC‐MS/MS method. […] A 10 µL aliquot of the diluted supernatant was injected into an AB Sciex Triple Quad 5500 LC‐MS/MS system for quantitative analysis. […]
REPORTED ENDPOINT: MRT inf

[
  {
    "RECORD SMILES": "Cc1ccc(Nc2ncc3c(n2)N(C)C(=O)N(c2cccc(N)c2)C3)cn1",
    "REPORTED ENDPOINT": "MRT inf",
    "RESULT": "7.8 min"
  }
]

###

Test: Plasma pharmacokinetics after IV and PO administration
Assay type: in vivo, male Sprague–Dawley rats
Details: male, Sprague-Dawley, rat, plasma, iv, 1 mg/kg, IV 1 mg/kg, 2 h; read-out: Plasma concentration, mean
REPORTED ENDPOINT: concentration at 2 h

[
  {
    "COMPOUND": "Cc1ccc(Nc2ncc3c(n2)N(C)C(=O)N(c2cccc(N)c2)C3)cn1 [LZQ-02-023-01]",
    "REPORTED ENDPOINT": "concentration at 2 h",
    "RESULT": "2.11 ng/mL"
  }
]

###

Molecular target: SETD1A (Homo sapiens, UniProt O15047)
REPORTED ENDPOINT: IC50

[
  {
    "RECORD SMILES": "Cc1ccc(Nc2ncc3c(n2)N(C)C(=O)N(c2cccc(N)c2)C3)cn1",
    "TESTED SYSTEM": "SETD1A (Homo sapiens, UniProt O15047)",
    "REPORTED ENDPOINT": "IC50",
    "RESULT": "18.8 µM"
  }
]

###

Assay: Plasma pharmacokinetics after IV and PO administration
Format: in vivo, male Sprague–Dawley rats
Settings: male, Sprague-Dawley, rat, plasma, iv, 1 mg/kg, IV 1 mg/kg, 0.25 h; read-out: Plasma concentration, mean

[
  {
    "RECORD SMILES": "Cc1ccc(Nc2ncc3c(n2)N(C)C(=O)N(c2cccc(N)c2)C3)cn1",
    "UNITS TEXT": "ng/mL",
    "concentration at 0.25 h": 30.3
  }
]

###

Target: SMYD2 (Homo sapiens)
Sequence (Q9NRG4 whole entry, species assumed): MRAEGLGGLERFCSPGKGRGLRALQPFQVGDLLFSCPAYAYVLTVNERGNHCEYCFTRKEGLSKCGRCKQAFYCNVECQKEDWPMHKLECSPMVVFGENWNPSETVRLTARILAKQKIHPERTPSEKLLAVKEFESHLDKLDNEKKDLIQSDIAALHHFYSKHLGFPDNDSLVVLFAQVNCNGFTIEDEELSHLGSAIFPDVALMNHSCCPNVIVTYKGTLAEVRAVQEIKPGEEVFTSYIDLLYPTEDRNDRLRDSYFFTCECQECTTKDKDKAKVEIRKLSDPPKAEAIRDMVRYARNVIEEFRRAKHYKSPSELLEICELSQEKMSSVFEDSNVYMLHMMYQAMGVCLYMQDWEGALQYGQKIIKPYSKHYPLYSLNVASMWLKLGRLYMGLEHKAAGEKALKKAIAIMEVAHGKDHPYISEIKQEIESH
REPORTED ENDPOINT: IC50 (µM)

[
  {
    "RECORD SMILES": "Cc1ccc(Nc2ncc3c(n2)N(C)C(=O)N(c2cccc(N)c2)C3)cn1",
    "UNITS TEXT": "µM",
    "NUMBER": 9.07
  }
]

###

Assay: Plasma pharmacokinetics after IV and PO administration
Format: in vivo, male Sprague–Dawley rats
Settings: male, Sprague-Dawley, rat, plasma, po, 10 mg/kg, PO 10 mg/kg; read-out: Cmax, mean

[
  {
    "RECORD SMILES": "Cc1ccc(Nc2ncc3c(n2)N(C)C(=O)N(c2cccc(N)c2)C3)cn1",
    "Cmax [ng/mL]": 27.7
  }
]

###

Experiment: Plasma pharmacokinetics after IV and PO administration
Format: in vivo, male Sprague–Dawley rats
Details: male, Sprague-Dawley, rat, plasma, iv, 1 mg/kg, IV 1 mg/kg; read-out: AUCInf, mean

[
  {
    "RECORD SMILES": "Cc1ccc(Nc2ncc3c(n2)N(C)C(=O)N(c2cccc(N)c2)C3)cn1",
    "AUC(0-inf), ng·h/mL": 178
  }
]

###

Molecular target: GLP (Homo sapiens, UniProt Q9H9B1)
Sequence (Q9H9B1 whole entry): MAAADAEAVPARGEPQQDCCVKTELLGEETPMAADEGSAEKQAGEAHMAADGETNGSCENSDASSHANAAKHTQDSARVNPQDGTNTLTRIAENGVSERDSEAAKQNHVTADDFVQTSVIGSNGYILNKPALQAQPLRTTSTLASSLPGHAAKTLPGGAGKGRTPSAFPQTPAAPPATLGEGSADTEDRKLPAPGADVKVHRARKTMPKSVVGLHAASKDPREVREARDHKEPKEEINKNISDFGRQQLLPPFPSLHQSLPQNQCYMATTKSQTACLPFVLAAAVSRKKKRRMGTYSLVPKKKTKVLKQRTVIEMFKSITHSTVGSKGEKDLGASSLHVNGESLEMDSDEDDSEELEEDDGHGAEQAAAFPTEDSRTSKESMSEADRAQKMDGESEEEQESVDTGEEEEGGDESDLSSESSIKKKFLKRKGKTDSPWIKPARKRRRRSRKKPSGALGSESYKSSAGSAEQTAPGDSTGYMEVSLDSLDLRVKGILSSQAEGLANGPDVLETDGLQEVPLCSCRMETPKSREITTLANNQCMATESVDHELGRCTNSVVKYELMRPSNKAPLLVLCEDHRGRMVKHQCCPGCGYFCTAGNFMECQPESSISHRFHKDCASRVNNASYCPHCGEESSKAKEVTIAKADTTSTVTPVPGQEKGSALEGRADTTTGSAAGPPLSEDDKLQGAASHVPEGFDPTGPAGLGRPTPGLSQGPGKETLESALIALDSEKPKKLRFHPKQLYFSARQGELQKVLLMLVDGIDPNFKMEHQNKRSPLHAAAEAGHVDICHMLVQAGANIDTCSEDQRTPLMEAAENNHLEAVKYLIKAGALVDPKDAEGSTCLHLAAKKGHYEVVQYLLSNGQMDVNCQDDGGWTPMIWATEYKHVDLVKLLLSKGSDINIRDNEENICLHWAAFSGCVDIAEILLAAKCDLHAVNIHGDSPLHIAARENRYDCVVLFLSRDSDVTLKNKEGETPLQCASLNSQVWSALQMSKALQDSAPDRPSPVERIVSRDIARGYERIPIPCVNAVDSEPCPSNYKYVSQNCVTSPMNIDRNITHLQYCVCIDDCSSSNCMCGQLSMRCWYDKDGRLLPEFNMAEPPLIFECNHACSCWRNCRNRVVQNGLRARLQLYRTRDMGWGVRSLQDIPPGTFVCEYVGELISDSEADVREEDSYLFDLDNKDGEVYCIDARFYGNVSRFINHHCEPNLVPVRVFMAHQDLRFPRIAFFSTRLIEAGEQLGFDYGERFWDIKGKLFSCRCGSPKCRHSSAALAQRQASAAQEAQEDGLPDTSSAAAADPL

[
  {
    "RECORD SMILES": "Cc1ccc(Nc2ncc3c(n2)N(C)C(=O)N(c2cccc(N)c2)C3)cn1",
    "IC50 / µM": 23.9
  }
]

###

Test: Plasma pharmacokinetics after IV and PO administration
Type: in vivo, male Sprague–Dawley rats
Conditions: male, Sprague-Dawley, rat, plasma, iv, 1 mg/kg, IV 1 mg/kg, 1 h; read-out: Plasma concentration, mean

[
  {
    "RECORD SMILES": "Cc1ccc(Nc2ncc3c(n2)N(C)C(=O)N(c2cccc(N)c2)C3)cn1",
    "concentration at 1 h [ng/mL]": 4.21
  }
]
